# Measured target: tryptophanase of Bacteroides tetaiotaomicron (Bacteroides thetaiotaomicron, UniProt Q8A7N2)
# Sequence (Q8A7N2 entry or part of it, change not shown): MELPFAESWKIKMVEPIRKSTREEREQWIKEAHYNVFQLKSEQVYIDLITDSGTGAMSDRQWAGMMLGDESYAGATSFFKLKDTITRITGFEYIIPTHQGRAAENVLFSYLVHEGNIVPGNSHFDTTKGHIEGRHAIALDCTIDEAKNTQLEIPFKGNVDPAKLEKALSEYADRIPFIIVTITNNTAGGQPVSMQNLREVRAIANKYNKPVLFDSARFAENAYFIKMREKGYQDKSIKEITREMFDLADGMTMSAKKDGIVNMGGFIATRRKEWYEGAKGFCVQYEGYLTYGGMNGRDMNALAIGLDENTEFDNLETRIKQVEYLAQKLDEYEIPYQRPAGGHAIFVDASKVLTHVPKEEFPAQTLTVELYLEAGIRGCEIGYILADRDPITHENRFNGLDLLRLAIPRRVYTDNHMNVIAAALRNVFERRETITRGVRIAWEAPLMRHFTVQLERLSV
In this section, each of the molecules is paired with its reported pIC50.
Note on units: pIC50 is unitless, being -log10 of a concentration expressed in mol/L.

# annotated cases, reported pIC50 shown
## Input Specify pIC50 for CC(C)Oc1cc(N)c(Cl)cc1C(=O)NC(C)(C)C(=O)O and stop.
## Output 6.41

## Input Specify pIC50 for CCCOc1cc(N)c(F)cc1C(=O)NC(C)(C)C(=O)O and stop.
## Output 6.27

## Input Specify pIC50 for CCCOc1cc(N)c(Cl)cc1C(=O)NC(C)(C)C(=O)O and stop.
## Output 6.70

New cases:
## Input Specify pIC50 for CC[C@@](C)(NC(=O)c1cc(F)c(N)cc1OC)C(=O)O and stop.
## Output 5.25

## Input Specify pIC50 for CCOc1cc(N)c(F)cc1C(=O)N[C@](C)(CC)C(=O)O and stop.
## Output 6.31

## Input Specify pIC50 for CC[C@@](C)(NC(=O)c1cc(Cl)c(N)cc1OC(F)F)C(=O)O and stop.
## Output 6.96

## Input Specify pIC50 for CCOc1cc(N)c(Cl)cc1C(=O)NC(C)(C)C(=O)O and stop.
## Output 5.89

## Input Specify pIC50 for CC[C@@](C)(NC(=O)c1cc(C(F)(F)F)c(N)cc1OC)C(=O)O and stop.
## Output 6.08

----------
# Measured target: UniProt Q8A7N2
Readout type: IC50
Please give the number followed by its unit.

# annotated cases, reported IC50 shown
## Input Provide measured IC50 on UniProt Q8A7N2 for CC[C@](C)(NC(=O)c1cc(Cl)c(N)cc1OC)C(=O)O please.
## Output 0.31 µM

## Input Provide measured IC50 on UniProt Q8A7N2 for CCC(CC)(NC(=O)c1ccc(N)cc1)C(=O)O please.
## Output 27.1 µM

## Input Provide measured IC50 on UniProt Q8A7N2 for CCOc1cc(N)c(Cl)cc1C(=O)N[C@](C)(CC)C(=O)O please.
## Output 0.09 µM

## Input Provide measured IC50 on UniProt Q8A7N2 for CCC(NC(=O)c1ccc(N)c(Cl)c1)(C(=O)O)C1CC1 (stereo not shown) please.
## Output 1 µM

## Input Provide measured IC50 on UniProt Q8A7N2 for CCCOc1cc(N)c(F)cc1C(=O)N[C@](C)(CC)C(=O)O please.
## Output 0.09 µM

New cases:
## Input Provide measured IC50 on UniProt Q8A7N2 for CC[C@@](C)(NC(=O)c1cc(C)c(N)cc1OC)C(=O)O please.
## Output 3.13 µM

## Input Provide measured IC50 on UniProt Q8A7N2 for CCC(NC(=O)c1ccc(N)c(C)c1)(C(=O)O)C1CC1 (stereo not shown) please.
## Output 1.7 µM

----------
The listing below reports log10(IC50) for molecules tested on tryptophanase of Bacteroides tetaiotaomicron (Bacteroides thetaiotaomicron).
Lab note - IC50 converted to log10 from values in µM.

# annotated cases, reported log10(IC50) shown
## Input Specify log10(IC50) for CCC(CC)(NC(=O)c1ccc(N)c(C)c1)C(=O)O [Compound of Example 2] and stop.
## Output 0.89

## Input Specify log10(IC50) for CCOc1cc(N)c(F)cc1C(=O)N[C@@](C)(CC)C(=O)O [Compound of Example 24] and stop.
## Output -0.89

## Input Specify log10(IC50) for CCOc1cc(N)c(Cl)cc1C(=O)N[C@@](C)(CC)C(=O)O [Compound of Example 13] and stop.
## Output -1.10

## Input Specify log10(IC50) for CCOc1cc(N)c(C#N)cc1C(=O)N[C@](C)(CC)C(=O)O [Compound of Example 29] and stop.
## Output -1.70

## Input Specify log10(IC50) for CC[C@@](C)(NC(=O)c1cc(Br)c(N)cc1OC)C(=O)O [Compound of Example 15] and stop.
## Output -0.11

New cases:
## Input Specify log10(IC50) for CC[C@](C)(NC(=O)c1cc(Br)c(N)cc1OC)C(=O)O [Compound of Example 17] and stop.
## Output -0.85

## Input Specify log10(IC50) for CCOc1cc(N)c(Br)cc1C(=O)N[C@@](C)(CC)C(=O)O [Compound of Example 19] and stop.
## Output -1.22

## Input Specify log10(IC50) for CCC(CC)(NC(=O)c1cc(C)c(N)c(C)c1)C(=O)O [Compound of Example 3] and stop.
## Output 0.90

## Input Specify log10(IC50) for CCOc1cc(N)c(I)cc1C(=O)N[C@](C)(CC)C(=O)O [Compound of Example 22] and stop.
## Output -1.10

## Input Specify log10(IC50) for CC[C@](C)(NC(=O)c1cc(I)c(N)cc1OC)C(=O)O [Compound of Example 18] and stop.
## Output -1.00

## Input Specify log10(IC50) for CCOc1cc(N)c(Br)cc1C(=O)N[C@](C)(CC)C(=O)O [Compound of Example 21] and stop.
## Output -1.00

## Input Specify log10(IC50) for CC[C@@](C)(NC(=O)c1cc(Cl)c(N)cc1OC)C(=O)O [Compound of Example 10] and stop.
## Output 0.18

## Input Specify log10(IC50) for CC[C@@](C)(NC(=O)c1cc(I)c(N)cc1OC)C(=O)O [Compound of Example 16] and stop.
## Output -0.44

## Input Specify log10(IC50) for CCC(CC)(NC(=O)c1cc(F)c(N)c(Cl)c1)C(=O)O [Compound of Example 7] and stop.
## Output 0.84

## Input Specify log10(IC50) for CCOc1cc(N)c(I)cc1C(=O)N[C@@](C)(CC)C(=O)O [Compound of Example 20] and stop.
## Output -1.30

## Input Specify log10(IC50) for CCCOc1cc(N)c(Cl)cc1C(=O)N[C@](C)(CC)C(=O)O [Compound of Example 25] and stop.
## Output -1.40

## Input Specify log10(IC50) for CCC(CC)(NC(=O)c1cc(Cl)c(N)cc1OC)C(=O)O [Compound of Example 6] and stop.
## Output -0.70
